// data source = PubChem BioAssay AID1159580

Test: chemical genetic growth profiling, strain panel (AID 1159580);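 further: tested at 20 µM; growth read once vehicle control cultures reached saturation at 30 °C; 1 = growth at the plate median or of vehicle wells; lower values mean less growth of the strain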
Conditions: S. cerevisiae deletion strains, growth OD, locus YFL029C, strain CAK1, active compounds read low
About 2,000 (36%) of roughly 5,500 compounds were called active. About 18% were inconclusive and are not listed. Some of the results follow.
result type: normalized growth

| compound | endpoint result |
| --- | --- |
| Cc1cccc(NC(=S)N/N=C\c2ccc(F)cc2)c1 | 0.954 |
| CCCN(CCC)C(=S)NC(=O)c1cccc([N+](=O)[O-])c1 | 0.962 |
| CC(C)c1ccc(COC(=O)Nc2ccc(CSc3ccc(Cl)cc3)o2)cc1 | 0.983 |
| C/C(Cc1nnn(-c2cc(C)on2)n1)=N/OC(=O)Nc1ccc(Cl)cc1 | 0.992 |
| N#C/C(=N/Nc1ccc(F)cc1)S(=O)(=O)c1ccc(Cl)cc1 | 0.973 |
| O=C(ON=C1CCCCC1)c1ccc([N+](=O)[O-])cc1 | 0.938 |
| Oc1c(Cl)cc(Cl)cc1C=Nc1nc(-c2ccc3ccccc3c2)cs1 | 0.963 |
| O=[N+]([O-])c1ccc(ON=C2CCCCC2)c([N+](=O)[O-])c1 | 0.987 |
| N#C/C(=N/Nc1ccc(F)cc1)C(=O)c1ccccc1 | 0.841 |
| CC(=O)/C(C#N)=N\Nc1ccc(F)cc1 | 0.468 |
| N/C(Cn1ccc(C(F)(F)F)n1)=N/OS(=O)(=O)c1cccc(Cl)c1Cl | 0.979 |
| CC(C)(C)c1ccc(N/N=C(\C#N)C(N)=O)cc1 | 0.11 |
| Cc1cc(C)cc(Sc2ccc3nnc(-c4ccccc4)n3n2)c1 | 0.984 |
| COc1cccc(C2CCN(C(=O)c3cccc4ccccc34)CC2)c1 | 0.99 |
| Cc1ccc(Nc2ccnc3cc(Cl)ccc23)cc1F | 0.986 |
| Cc1nn(C)c(C(=O)Sc2ccc(OC(F)(F)F)cc2)c1[N+](=O)[O-] | 0.978 |
| Cc1c(C(=O)Sc2ccc(F)cc2F)sc2nc(C(F)(F)F)nn12 | 0.101 |
| O=C(NCc1ccc(Cl)c(Cl)c1)c1cccnc1OCC(F)(F)F | 0.955 |
| O=C(Nc1cccc(C(F)(F)F)c1)c1cncc(C#Cc2ccccc2)c1 | 0.97 |
| Cc1ccc(S(=O)(=O)NC(=O)Nc2ccc(Sc3ccccc3)nc2Sc2ccccc2)cc1 | 0.979 |
| COc1ccc(C(CC(=O)c2ccccc2)Sc2ccccc2N)cc1OC (stereo unspecified) | 0.966 |

* * *

Entries and their normalized growth
Assay: chemical genetic growth profiling, strain panel (AID 1159580);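 further: tested at 20 µM; growth read once vehicle control cultures reached saturation at 30 °C; 1 = growth at the plate median or of vehicle wells; lower values mean less growth of the strain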
Conditions: S. cerevisiae deletion strains, growth OD, locus YNL271C, strain bni1, active compounds read low
The whole screen tested about 5,500 compounds, of which about 2,000 (36%) were called active. Not shown: some 18% with an inconclusive outcome. This is one part of the list.

| molecule | normalized growth |
| --- | --- |
| C[C@H]1COc2c(N3CCN(C)CC3)c(F)cc3c(=O)c(C(=O)O)cn1c23 | 1.01 |
| CN1C2CCC1CC(OC(c1ccccc1)c1ccccc1)C2 (stereo unspecified) | 0.967 |
| C[C@@H]1O[C@@H](O[C@H]2[C@H](Oc3cc(O)c4c(=O)cc(-c5ccc(O)cc5)oc4c3)O[C@H](CO)[C@@H](O)[C@@H]2O)[C@H](O)[C@H](O)[C@H]1O | 0.981 |
| CCn1cc(C(=O)O)c(=O)c2cc(F)c(N3CCNC(C)C3)c(F)c21 (stereo unspecified) | 0.992 |
| NCCCS(=O)(=O)O | 0.999 |
| O=S(=O)(O)CCS | 0.981 |
| CC1CCc2cc(F)cc3c(=O)c(C(=O)O)cn1c23 (stereo unspecified) | 0.962 |
| CN1C2CCC1CC(OC(c1ccccc1)c1ccccc1N)C2 (stereo unspecified) | 1 |
| COc1c(N2CCNC(C)C2)c(F)cc2c(=O)c(C(=O)O)cn(C3CC3)c12 (stereo unspecified) | 1 |
| CN1C2C[C@H](OC(=O)[C@H](CO)c3ccccc3)C[C@H]1[C@@H](O)C2 | 0.99 |
| CCn1cc(C(=O)O)c(=O)c2cc(F)c(N3CCNCC3)nc21 | 1.02 |
